System: NCI-H322M
procedure text: Cytotoxicity against human NCI-H322M cells by SRB assay
Assay type: functional
Exercise: state measured GI50 for each of the compounds provided.
Give bare numbers, in µM.

INSERT INTO measurements (smiles_text, value_type, quantitative_result) VALUES
  ('COC(C)(C)[C@@H](O)[C@H]1C[C@H](C)[C@@]2(CC[C@]3(C)[C@@H]2CC[C@@H]2[C@@]4(C)CC[C@@H](OC(C)=O)C(C)(C)[C@@H]4C[C@@H](O[C@@H]4O[C@H](COC(C)=O)[C@@H](O)[C@H](O)[C@H]4O)[C@]23C)O1', 'GI50', 1.91);

Now look at this one.
Give the measured GI50 of `CC(=O)OC[C@H]1O[C@@H](O[C@@H]2C[C@H]3C(C)(C)[C@H](OC(C)=O)CC[C@]3(C)[C@H]3CCC4=C([C@@H](C)C[C@@H](O)[C@H](O)C(C)(C)O)CC[C@@]4(C)[C@@]32C)[C@H](O)[C@@H](O)[C@@H]1O` .
17.4

###

Test system: SK-MEL-5
procedure text: Cytotoxicity against human SK-MEL-5 cells by SRB assay
Format: functional
Assignment: determine reported GI50 for the given molecules.
Give bare numbers, in µM.

INSERT INTO measurements (smiles_text, quantitative_result) VALUES
  ('CC(=O)OC[C@H]1O[C@@H](O[C@@H]2C[C@H]3C(C)(C)[C@H](OC(C)=O)CC[C@]3(C)[C@H]3CC[C@@]45C[C@H](O)C[C@H](C)[C@@H]4CC=C5[C@@]32C)[C@H](O)[C@@H](O)[C@@H]1O', 3.89),
  ('COC(C)(C)[C@@H](O)[C@H]1C[C@H](C)[C@@]2(CC[C@]3(C)[C@@H]2CC[C@@H]2[C@@]4(C)CC[C@@H](OC(C)=O)C(C)(C)[C@@H]4C[C@@H](O[C@@H]4O[C@H](COC(C)=O)[C@@H](O)[C@H](O)[C@H]4O)[C@]23C)O1', 8.32);

Could you now look at the following molecule, please?
Kindly state the measured GI50 obtained for `COC(C)(C)[C@@H](O)[C@H](O)C[C@H](C)C1=C2CC[C@@H]3[C@@]4(C)CC[C@@H](OC(C)=O)C(C)(C)[C@@H]4C[C@@H](O[C@@H]4O[C@H](COC(C)=O)[C@@H](O)[C@H](O)[C@H]4O)[C@@]3(C)[C@]2(C)CC1` with SK-MEL-5.
14.5

###

Test system: OVCAR-4
procedure text: Cytotoxicity against human OVCAR4 cells by SRB assay
Type: functional
Under this convention, rule met denotes GI50 strictly below 4 µM and rule not met denotes GI50 at or above 4 µM.

INSERT INTO results (smiles_text, label) VALUES
  ('C=C(C)[C@@H](O)[C@H](O)C[C@H](C)[C@@H]1CC[C@]2(C)C1=CC[C@@H]1[C@@]3(C)CC[C@@H](OC(C)=O)C(C)(C)[C@@H]3C[C@@H](O[C@@H]3O[C@H](COC(C)=O)[C@@H](O)[C@H](O)[C@H]3O)[C@]12C', 'rule met');

A record lists `CC(=O)OC[C@H]1O[C@@H](O[C@@H]2C[C@H]3C(C)(C)[C@H](OC(C)=O)CC[C@]3(C)[C@H]3CC[C@@H]4[C@]5(CC[C@@]4(C)[C@@]32C)O[C@@H]([C@H](O)C(C)(C)O)C[C@@H]5C)[C@H](O)[C@@H](O)[C@@H]1O` . Is its GI50 below 4 µM?
rule met

Below 4 µM on GI50? Entry `COC(C)(C)[C@@H](O)[C@H](O)C[C@H](C)C1=C2CC[C@@H]3[C@@]4(C)CC[C@@H](OC(C)=O)C(C)(C)[C@@H]4C[C@@H](O[C@@H]4O[C@H](COC(C)=O)[C@@H](O)[C@H](O)[C@H]4O)[C@@]3(C)[C@]2(C)CC1`
rule not met

Lab note: GI50 threshold 4 µM. Does this molecule come in strictly under it? `CC(=O)OC[C@H]1O[C@@H](O[C@@H]2C[C@H]3C(C)(C)[C@H](OC(C)=O)CC[C@]3(C)[C@H]3CCC4=C([C@@H](C)C[C@@H](O)[C@H](O)C(C)(C)O)CC[C@@]4(C)[C@@]32C)[C@H](O)[C@@H](O)[C@@H]1O`
rule not met

For this molecule, is GI50 lower than 4 µM? `CC(=O)OC[C@H]1O[C@@H](O[C@@H]2C[C@H]3C(C)(C)[C@H](OC(C)=O)CC[C@]3(C)[C@H]3CC[C@@]45C[C@H](O)C[C@H](C)[C@@H]4CC=C5[C@@]32C)[C@H](O)[C@@H](O)[C@@H]1O`
rule not met

Confirm or reject: GI50 of `COC(C)(C)[C@@H](O)[C@H]1C[C@H](C)[C@@]2(CC[C@]3(C)[C@@H]2CC[C@@H]2[C@@]4(C)CC[C@@H](OC(C)=O)C(C)(C)[C@@H]4C[C@@H](O[C@@H]4O[C@H](COC(C)=O)[C@@H](O)[C@H](O)[C@H]4O)[C@]23C)O1` lies strictly below 4 µM
rule met
